The reported measurements were obtained from the Kinase Knowledgebase extract (Sharma et al. 2016).

subject-of-test: UniProt Q16539
experimental-protocol: In vitro Inhibition of TNF-alpha Production in PBMC Cells
readout: IC50 (nM)

structure_notation=CCOC(=O)c1[nH]cc(-c2ccncc2)c1-c1ccc(C)cc1 quantitative_readout=136
structure_notation=CCOC(=O)c1c(-c2ccc(C)cc2)c(-c2ccncc2)c(Br)n1C quantitative_readout=736
structure_notation=Cn1c(C(=O)OC(C)(C)C)c(-c2ccc(F)cc2)c(-c2ccncc2)c1N1CCNCC1 quantitative_readout=420
structure_notation=COC(=O)c1c(-c2ccc(F)cc2)c(-c2ccncc2)c(N2CCNCC2)n1C quantitative_readout=33
structure_notation=CCCc1[nH]cc(-c2ccc(F)cc2)c1-c1ccnc(N[C@@H](C)c2ccccc2)n1 quantitative_readout=10

----------
Tested on: MAPK14 (BALB/cJ mice)
experimental-protocol: In vivo Inhibition of LPS-induced TNF-alpha Production
run-conditions: dose or concentration not given here
readout: inhibition

structure_notation=COC(=O)c1c(-c2ccc(F)cc2)c(-c2ccncc2)c(N=CN(C)C)n1C readout=inhibition result=6%
structure_notation=COC(=O)c1c(-c2ccc(F)cc2)c(-c2ccncc2)c(N2CCNCC2)n1C readout=inhibition result=73%
structure_notation=COC(=O)c1c(-c2ccncc2)c(-c2ccc(F)cc2)c(NCCN2CCOCC2)n1C readout=inhibition result=91%

----------
subject-of-test: MAPK14 (human) (UniProt Q16539)
Sequence (Q16539 whole entry, looked up): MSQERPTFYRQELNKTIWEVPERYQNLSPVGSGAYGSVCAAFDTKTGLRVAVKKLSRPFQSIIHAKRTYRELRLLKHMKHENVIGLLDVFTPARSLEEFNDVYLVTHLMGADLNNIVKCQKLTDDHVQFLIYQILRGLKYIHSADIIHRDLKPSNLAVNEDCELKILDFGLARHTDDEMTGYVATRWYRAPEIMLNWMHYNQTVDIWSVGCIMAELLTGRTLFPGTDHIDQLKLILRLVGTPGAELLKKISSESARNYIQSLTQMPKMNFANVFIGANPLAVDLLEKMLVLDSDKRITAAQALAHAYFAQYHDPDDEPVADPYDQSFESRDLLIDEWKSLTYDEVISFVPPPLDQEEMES
experimental-protocol: In vitro Inhibition of TNF-alpha Production in PBMC Cells
Checkbox rule: IC50 lower than 100 nM = label 1; IC50 not lower than 100 nM = label 0.

compound=CN(CCN1CCOCC1)c1c(-c2ccncc2)c(-c2ccc(F)cc2)cn1C subject_of_test="MAPK14 (human) (UniProt Q16539)" qualitative_label="label 0"
compound="COC(=O)c1c(-c2ccc(F)cc2)c(-c2ccncc2)c2n1CCC2C (stereo not given)" subject_of_test="MAPK14 (human) (UniProt Q16539)" qualitative_label="label 0"
compound=COC(=O)c1c(-c2ccc(F)cc2)c(-c2ccncc2)c(NCc2ccncc2)n1C subject_of_test="MAPK14 (human) (UniProt Q16539)" qualitative_label="label 0"
compound=CCOC(=O)c1[nH]cc(-c2ccncc2)c1-c1cccc(C(F)(F)F)c1 subject_of_test="MAPK14 (human) (UniProt Q16539)" qualitative_label="label 1"
compound=O=C1CCCn2cc(-c3ccncc3)c(-c3ccc(F)cc3)c21 subject_of_test="MAPK14 (human) (UniProt Q16539)" qualitative_label="label 0"

----------
subject-of-test: MAPK14 (human)
experimental-protocol: In vitro Inhibition of TNF-alpha Production in PBMC Cells
The entries below come with measured IC50 values attached.
readout: IC50 (nM)

structure_notation=COC(=O)CCn1c(C#CCCO)c(-c2ccncc2)c(-c2ccc(F)cc2)c1C(=O)OC subject_of_test="MAPK14 (human)" readout=IC50 unit_name=nM quantitative_readout=5280
structure_notation=COC(=O)c1c(-c2ccc(F)cc2)c(-c2ccncc2)c(NCc2cccc(OC)c2)n1C subject_of_test="MAPK14 (human)" readout=IC50 unit_name=nM quantitative_readout=407
structure_notation=CCCc1c(-c2ccnc(N[C@@H](C)COC)n2)c(-c2ccc(F)cc2)cn1CCN1CCOCC1 subject_of_test="MAPK14 (human)" readout=IC50 unit_name=nM quantitative_readout=1
structure_notation=CCOC(=O)c1c(-c2ccc(C)cc2)c(-c2ccncc2)c(N2CCNCC2)n1C subject_of_test="MAPK14 (human)" readout=IC50 unit_name=nM quantitative_readout=60
structure_notation=Cn1cc(-c2ccncc2)c(-c2ccc(F)cc2)c1-c1ncc(-c2ccccc2)o1 subject_of_test="MAPK14 (human)" readout=IC50 unit_name=nM quantitative_readout=1030
structure_notation=COC(=O)c1c(-c2ccc(F)cc2)c(-c2ccncc2)c(N2CCN(C)CC2)n1C subject_of_test="MAPK14 (human)" readout=IC50 unit_name=nM quantitative_readout=95
structure_notation=COC(=O)c1c(-c2ccncc2)c(-c2ccc(F)cc2)c(C#CCN2CCOCC2)n1C subject_of_test="MAPK14 (human)" readout=IC50 unit_name=nM quantitative_readout=788
structure_notation=CCOC(=O)c1[nH]cc(-c2ccncc2)c1-c1ccc(F)c(F)c1 subject_of_test="MAPK14 (human)" readout=IC50 unit_name=nM quantitative_readout=560
structure_notation=COC(=O)c1c(-c2ccc(F)cc2)c(-c2ccncc2)c(NCCN2CCCC2)n1C subject_of_test="MAPK14 (human)" readout=IC50 unit_name=nM quantitative_readout=1390
structure_notation=COC(=O)c1c(-c2ccc(F)cc2)c(-c2ccncc2)c(NCCN2CCCCC2)n1C subject_of_test="MAPK14 (human)" readout=IC50 unit_name=nM quantitative_readout=92
structure_notation=Cn1c(C(=O)c2ccccc2)c(-c2ccc(F)cc2)c(-c2ccncc2)c1N1CCNCC1 subject_of_test="MAPK14 (human)" readout=IC50 unit_name=nM quantitative_readout=660
structure_notation=CCn1cc(-c2ccncc2)c(-c2ccc(F)cc2)c1C(=O)OC subject_of_test="MAPK14 (human)" readout=IC50 unit_name=nM quantitative_readout=108
structure_notation=CC(=O)c1c(-c2ccc(F)cc2)c(-c2ccncc2)c(N2CCNCC2)n1C subject_of_test="MAPK14 (human)" readout=IC50 unit_name=nM quantitative_readout=40
structure_notation=COC(=O)c1c(-c2ccc(F)cc2)c(-c2ccncc2)c(NC(C)=O)n1C subject_of_test="MAPK14 (human)" readout=IC50 unit_name=nM quantitative_readout=1490
structure_notation=COC(=O)c1c(-c2ccc(F)cc2)c(-c2ccncc2)c(NCCNC(=O)OC(C)(C)C)n1C subject_of_test="MAPK14 (human)" readout=IC50 unit_name=nM quantitative_readout=1640
structure_notation=O=C(NCc1ccccc1)c1[nH]cc(-c2ccc(F)cc2)c1-c1ccncc1 subject_of_test="MAPK14 (human)" readout=IC50 unit_name=nM quantitative_readout=14
structure_notation=CCOC(=O)c1c(-c2ccc(F)cc2)c(-c2ccncc2)c(N2CCNCC2)n1C subject_of_test="MAPK14 (human)" readout=IC50 unit_name=nM quantitative_readout=16
structure_notation=COC(=O)c1c(-c2ccc(F)cc2)c(-c2ccncc2)c(N2CCN(C(C)C)CC2)n1C subject_of_test="MAPK14 (human)" readout=IC50 unit_name=nM quantitative_readout=1980
structure_notation=COC(=O)c1c(-c2ccc(F)cc2)c(-c2ccncc2)c(N(C)CCN2CCOCC2)n1C subject_of_test="MAPK14 (human)" readout=IC50 unit_name=nM quantitative_readout=38
structure_notation=Fc1ccc(-c2cn3c(c2-c2ccncc2)CNCC3)cc1 subject_of_test="MAPK14 (human)" readout=IC50 unit_name=nM quantitative_readout=208

----------
subject-of-test: MAPK14 (human)
experimental-protocol: In vitro Inhibition of TNF-alpha Production in PBMC Cells
Examples of molecules with documented IC50 follow.
readout: IC50 (nM)

structure_notation=CCOC(=O)c1c(-c2cccc(C(F)(F)F)c2)c(-c2ccncc2)c(N2CCNCC2)n1C subject_of_test="MAPK14 (human)" unit_name=nM quantitative_readout=21
structure_notation=COC(=O)c1c(-c2ccc(F)cc2)c(-c2ccncc2)c(N2CCN(c3cccc(C(C)=O)c3)CC2)n1C subject_of_test="MAPK14 (human)" unit_name=nM quantitative_readout=8
structure_notation=CCOC(=O)c1c(-c2ccc(F)cc2)c(-c2ccncc2)c(CCCOCc2ccccc2)n1C subject_of_test="MAPK14 (human)" unit_name=nM quantitative_readout=248
structure_notation=Cn1cc(-c2ccc(F)cc2)c(-c2ccncc2)c1CO subject_of_test="MAPK14 (human)" unit_name=nM quantitative_readout=169
structure_notation=COC(=O)c1c(-c2ccc(F)cc2)c(-c2ccncc2)cn1C(C)=O subject_of_test="MAPK14 (human)" unit_name=nM quantitative_readout=194
structure_notation=COC(=O)c1c(-c2ccncc2)c(-c2ccc(F)cc2)c(Br)n1C subject_of_test="MAPK14 (human)" unit_name=nM quantitative_readout=180
structure_notation=COC(=O)c1c(-c2ccc(F)cc2)c(-c2ccncc2)c(-c2ccc(N(C)C)cc2)n1C subject_of_test="MAPK14 (human)" unit_name=nM quantitative_readout=120
structure_notation=CN(C)C(=O)c1c(-c2ccc(F)cc2)c(-c2ccncc2)c(N2CCNCC2)n1C subject_of_test="MAPK14 (human)" unit_name=nM quantitative_readout=120
structure_notation=COC(=O)c1c(-c2ccc(F)cc2)c(-c2ccncc2)c(NCCN2CCCC2)n1CCN1CCOCC1 subject_of_test="MAPK14 (human)" unit_name=nM quantitative_readout=969
structure_notation=CCCN1CCN(c2c(-c3ccncc3)c(-c3ccc(F)cc3)c(C(=O)OC)n2C)CC1 subject_of_test="MAPK14 (human)" unit_name=nM quantitative_readout=901
structure_notation=Fc1ccc(-c2c[nH]c(CN3CCc4ccccc4C3)c2-c2ccncc2)cc1 subject_of_test="MAPK14 (human)" unit_name=nM quantitative_readout=40
structure_notation=COC(=O)c1c(-c2ccc(F)cc2)c(-c2ccncc2)c(N2CCN(C(C)=O)CC2)n1C subject_of_test="MAPK14 (human)" unit_name=nM quantitative_readout=1530
structure_notation=COC(=O)c1c(-c2ccncc2)c(-c2ccc(F)cc2)c(NCCc2ccccc2)n1C subject_of_test="MAPK14 (human)" unit_name=nM quantitative_readout=1020
structure_notation=CCOC(=O)c1[nH]cc(-c2ccncc2)c1-c1cc(F)cc(F)c1 subject_of_test="MAPK14 (human)" unit_name=nM quantitative_readout=114
structure_notation=COC(=O)c1c(-c2ccc(F)cc2)c(-c2ccncc2)c(NC2CCNCC2)n1C subject_of_test="MAPK14 (human)" unit_name=nM quantitative_readout=315
structure_notation=CCNC(=O)c1[nH]cc(-c2ccc(F)cc2)c1-c1ccncc1 subject_of_test="MAPK14 (human)" unit_name=nM quantitative_readout=209
structure_notation=CN(C)CCn1cc(-c2ccncc2)c(-c2ccc(F)cc2)c1CO subject_of_test="MAPK14 (human)" unit_name=nM quantitative_readout=852
structure_notation=Cn1c(N2CCCC2)c(-c2ccncc2)c(-c2ccc(F)cc2)c1C(C)(C)O subject_of_test="MAPK14 (human)" unit_name=nM quantitative_readout=192
structure_notation=COC(=O)c1c(-c2ccc(F)cc2)c(-c2ccncc2)c(N=CN(C)C)n1C subject_of_test="MAPK14 (human)" unit_name=nM quantitative_readout=5
structure_notation=N#Cc1[nH]cc(-c2ccncc2)c1-c1ccc(F)cc1 subject_of_test="MAPK14 (human)" unit_name=nM quantitative_readout=47
